Tested on: Hepatitis B virus
Assay: Antiviral activity against wild type Hepatitis B virus infected in hepatocytes
Assay type: functional, organism-based
Settings: Hepatocyte
The source made the active and inactive calls. No cut-off for these calls is given here.
Hi! Could you answer with just one of these? active, inactive

Examples with answers:
1) C#Cc1cn([C@H]2O[C@H](CO)[C@@H](O)[C@@]2(C)F)c2nc(N)nc(N)c12	inactive
2) COC(=O)/C=C/c1cn([C@H]2O[C@H](CO)[C@@H](O)[C@@]2(C)F)c2ncnc(N)c12	inactive
3) C[C@@]1(F)[C@H](O)[C@@H](CO)O[C@H]1n1cc(C#Cc2ccccc2)c2c(N)ncnc21	active

Exam item: Dear all, I need the recorded test outcome for `C[C@@]1(F)[C@H](O)[C@@H](CO)O[C@@H]1n1cc(I)c2c(N)ncnc21` , thank you.
Marked response: active

Exam item: Dear all, I need the recorded test outcome for `C[C@@]1(F)[C@H](O)[C@@H](CO)O[C@@H]1n1cc(C#Cc2ccccc2)c2c(N)ncnc21` , thank you.
Marked response: inactive

----------
Listed below: pEC50 values for each entry.
Tested on: Human immunodeficiency virus 1
Assay: Antiviral activity against HIV1 LAV1 infected in PHA-stimulated human PBMC assessed as reduction in RT activity after 6 days by micromethod-based beta scintillation counting
Assay type: functional, organism-based
Conditions: Human immunodeficiency virus 1, LAV1, 144 h
Convention used: pEC50 is expressed as -log10 of the molar concentration.

The measured pEC50 associated with CCOC(=O)[C@H](C)NP(=O)(OC[C@H]1O[C@@H](n2cc(I)c3c(N)nc(N)nc32)[C@](C)(F)[C@@H]1O)Oc1ccccc1 (stereo partly drawn) reads 4.57

----------
Test system: CCRF-CEM
Assay: Cytotoxicity against human CEM cells after 6 days by trypan blue exclusion method
Type: cell-based
Details: 144 h
IC50 strictly under 30 µM means T; at 30 µM or over means F.

Examples with answers:
1. C[C@@]1(F)[C@H](O)[C@@H](CO)O[C@H]1n1cc(Cl)c2c(N)ncnc21	F
2. C[C@@]1(F)[C@H](O)[C@@H](CO)O[C@@H]1n1cc(I)c2c(N)nc(N)nc21	F
3. C#Cc1cn([C@@H]2O[C@H](CO)[C@@H](O)[C@@]2(C)F)c2nc(N)nc(N)c12	F
4. C[C@@]1(F)[C@H](O)[C@@H](CO)O[C@@H]1n1ccc2c(N)ncnc21	F

Exam item: Answer whether the compound `C[C@@]1(F)[C@H](O)[C@@H](CO)O[C@@H]1n1cc(C#Cc2ccccc2)c2c(N)ncnc21` has IC50 strictly less than 30 µM
Marked response: T

Exam item: Answer whether the compound `CCc1cn([C@H]2O[C@H](CO)[C@@H](O)[C@@]2(C)F)c2ncnc(N)c12` has IC50 strictly less than 30 µM
Marked response: F

Exam item: Answer whether the compound `C[C@@]1(F)[C@H](O)[C@@H](CO)O[C@H]1n1cc(I)c2c(N)ncnc21` has IC50 strictly less than 30 µM
Marked response: T

Exam item: Answer whether the compound `C[C@@]1(F)[C@H](O)[C@@H](CO)O[C@H]1n1ccc2c(N)ncnc21` has IC50 strictly less than 30 µM
Marked response: F

Exam item: Answer whether the compound `C#Cc1cn([C@H]2O[C@H](CO)[C@@H](O)[C@@]2(C)F)c2nc(N)nc(N)c12` has IC50 strictly less than 30 µM
Marked response: T

Exam item: Answer whether the compound `C[C@@]1(F)[C@H](O)[C@@H](CO)O[C@H]1n1cc(Br)c2c(N)ncnc21` has IC50 strictly less than 30 µM
Marked response: F

Exam item: Answer whether the compound `C[C@@]1(F)[C@H](O)[C@@H](CO)O[C@@H]1n1cc(Br)c2c(N)ncnc21` has IC50 strictly less than 30 µM
Marked response: F

Exam item: Answer whether the compound `C=Cc1cn([C@@H]2O[C@H](CO)[C@@H](O)[C@@]2(C)F)c2ncnc(N)c12` has IC50 strictly less than 30 µM
Marked response: T

Exam item: Answer whether the compound CCOC(=O)[C@H](C)NP(=O)(OC[C@H]1O[C@@H](n2cc(I)c3c(N)nc(N)nc32)[C@](C)(F)[C@@H]1O)Oc1ccccc1 (some centres undefined) has IC50 strictly less than 30 µM
Marked response: F

Exam item: Answer whether the compound `C[C@@]1(F)[C@H](O)[C@@H](CO)O[C@H]1n1ccc2c(N)nc(N)nc21` has IC50 strictly less than 30 µM
Marked response: F

Exam item: Answer whether the compound `CCc1cn([C@@H]2O[C@H](CO)[C@@H](O)[C@@]2(C)F)c2ncnc(N)c12` has IC50 strictly less than 30 µM
Marked response: F

Exam item: Answer whether the compound `COC(=O)/C=C/c1cn([C@H]2O[C@H](CO)[C@@H](O)[C@@]2(C)F)c2ncnc(N)c12` has IC50 strictly less than 30 µM
Marked response: F

----------
Test: Inhibition of Hepatitis C virus wild-type NS5B Cdelta 21 RNA dependent RNA polymerase expressed in Escherichia coli BL21(DE3)
Design: species or system Hepacivirus hominis
valueType: IC50 (µM)
Kindly provide the numeric value in µM only, without the unit symbol.

The measured IC50 associated with COP(=O)(OC)OP(=O)(OC)OP(=O)(OC)OC[C@H]1O[C@@H](n2cc(F)c3c(N)ncnc32)[C@](C)(F)[C@@H]1O (stereo partly specified) reads 4

----------
System: PBMC
Experiment: Cytotoxicity against human PBMC after 6 days by trypan blue exclusion method
Type: cell-based
Details: 144 h
Listed below: IC50 values for each entry.

The measured IC50 associated with `CNc1ncnc2c1c(F)cn2[C@H]1O[C@H](CO)[C@@H](O)[C@@]1(C)F` reads > 100 µM

The measured IC50 associated with `C[C@@]1(F)[C@H](O)[C@@H](CO)O[C@@H]1n1cc(Cl)c2c(N)ncnc21` reads > 100 µM

----------
Tested on: Human immunodeficiency virus 1
Assay: Antiviral activity against HIV1 LAV1 infected in PHA-stimulated human PBMC assessed as reduction in RT activity after 6 days by micromethod-based beta scintillation counting
Assay type: functional, organism-based
Settings: Human immunodeficiency virus 1, LAV1, 144 h
valueType: pEC50
Convention used: pEC50 is expressed as -log10 of the molar concentration.

1) C[C@@]1(F)[C@H](O)[C@@H](CO)O[C@H]1n1cc(I)c2c(N)nc(N)nc21	4.00
2) COc1ncnc2c1ccn2[C@@H]1O[C@H](CO)[C@@H](O)[C@@]1(C)F	4.61

Now look at this entry.
Item `C=Cc1cn([C@H]2O[C@H](CO)[C@@H](O)[C@@]2(C)F)c2ncnc(N)c12` ; assay system Human immunodeficiency virus 1; pEC50 reported as 4.45

----------
Listed below: pIC50 values for each entry.
Tested on: CCRF-CEM
Test: Cytotoxicity against human CEM cells after 6 days by trypan blue exclusion method
Assay type: cell-based
Settings: 144 h
pIC50: −log10 of the molar value.

1. C[C@@]1(F)[C@H](O)[C@@H](CO)O[C@@H]1n1cc(I)c2c(N)ncnc21	4.39
2. CCOC(=O)[C@H](C)NP(=O)(OC[C@H]1O[C@@H](n2cc(F)c3c(N)ncnc32)[C@](C)(F)[C@@H]1O)Oc1ccccc1 (some centres not stated)	< 4.00
3. COc1ncnc2c1ccn2[C@@H]1O[C@H](CO)[C@@H](O)[C@@]1(C)F	< 4.00
4. CNc1ncnc2c1c(F)cn2[C@@H]1O[C@H](CO)[C@@H](O)[C@@]1(C)F	< 4.00
5. C[C@@]1(O)[C@H](O)[C@@H](CO)O[C@H]1n1ccc(N)nc1=O	4.26

The measured pIC50 associated with `COc1ncnc2c1ccn2[C@H]1O[C@H](CO)[C@@H](O)[C@@]1(C)F` reads < 4.00

The measured pIC50 associated with `C#Cc1cn([C@@H]2O[C@H](CO)[C@@H](O)[C@@]2(C)F)c2ncnc(N)c12` reads < 4.00

The measured pIC50 associated with `C[C@@]1(F)[C@H](O)[C@@H](CO)O[C@@H]1n1ccc2c(N)nc(N)nc21` reads < 4.00

The measured pIC50 associated with `C[C@@]1(F)[C@H](O)[C@@H](CO)O[C@@H]1n1cc(F)c2c(N)ncnc21` reads 5.09

The measured pIC50 associated with `C[C@@]1(F)[C@H](O)[C@@H](CO)O[C@H]1n1cc(C#Cc2ccccc2)c2c(N)ncnc21` reads 4.94

The measured pIC50 associated with `COC(=O)/C=C/c1cn([C@@H]2O[C@H](CO)[C@@H](O)[C@@]2(C)F)c2ncnc(N)c12` reads < 4.00

The measured pIC50 associated with `C#Cc1cn([C@H]2O[C@H](CO)[C@@H](O)[C@@]2(C)F)c2ncnc(N)c12` reads < 4.00

----------
Listed below: EC50 values for each entry.
Test system: Human immunodeficiency virus 1
Assay: Antiviral activity against HIV1 LAV1 infected in PHA-stimulated human PBMC assessed as reduction in RT activity after 6 days by micromethod-based beta scintillation counting
Assay type: functional, organism-based
Settings: Human immunodeficiency virus 1, LAV1, 144 h
Kindly provide the numeric value in µM only, without the unit symbol.

Take a look at these entries with their results.
1. C#Cc1cn([C@@H]2O[C@H](CO)[C@@H](O)[C@@]2(C)F)c2nc(N)nc(N)c12	84.4
2. C=Cc1cn([C@@H]2O[C@H](CO)[C@@H](O)[C@@]2(C)F)c2ncnc(N)c12	14.7
3. C[C@@]1(F)[C@H](O)[C@@H](CO)O[C@H]1n1cc(Cl)c2c(N)ncnc21	82.4

Item CCOC(=O)[C@H](C)NP(=O)(OC[C@H]1O[C@@H](n2cc(F)c3c(N)ncnc32)[C@](C)(F)[C@@H]1O)Oc1ccccc1 (stereo partly drawn) ; assay system Human immunodeficiency virus 1; EC50 reported as 39.4

Item `C[C@@]1(F)[C@H](O)[C@@H](CO)O[C@H]1n1cc(I)c2c(N)ncnc21` ; assay system Human immunodeficiency virus 1; EC50 reported as 94

Item Cc1cn([C@H]2C[C@H](N=[N+]=[N-])[C@@H](CO)O2)c(=O)[nH]c1=O [ZIDOVUDINE] ; assay system Human immunodeficiency virus 1; EC50 reported as 0.0033

Item `C#Cc1cn([C@@H]2O[C@H](CO)[C@@H](O)[C@@]2(C)F)c2ncnc(N)c12` ; assay system Human immunodeficiency virus 1; EC50 reported as 59.1

Hey, just so you know, these numbers are from ChEMBL document CHEMBL1949592.
